Method notes: yeast display, Sf9 membrane polyspecificity reagent, FACS + sequencing; frameworks hold sequencing errors
Reported metric: polyreactivity (PSR sort gate)

1. QVQLVESGGGLVQAGGSLRLSCAASGSNFSRYAMGWYRQAPGKERDLVAAITSTGDSTSYADSVKGRFTISRDNAKNTVYVQMNSLKPEDTAVYYCAIVYVYRYVIPYDYWGQGTQVTVSS low polyreactivity
2. QVQLVESGGGLVQAGGSLRLSSAPSGSTIHTYTMGWYRQAPGKDRELVAGISRSGGTTYYADSVKGRFTISRDNAKNTVYLQMNSLKPEVTAVYDCNALSSKTDTYDYWGQGTQVTVSS high polyreactivity
3. QVQLVESGGGLVQAGGSLRLSCAASGSTFRAYAMGWYRQAPGKERELVAAISKRGGSTYYADSVKGRFTISRDNAKYTVYLQMNSLKPEDTAVYYCNAATRSPFDYWGQGTQVTVSS high polyreactivity
4. QVQLVESGGGLVQAGGSLRLSCAASGMGWYRQAPGKERELVAAITSGDSTNYADSVKGRFTISRDNAKNTVYLQMNSLKPEDTAVYYCAADPDYLYAYYYWGQGSQVTVSS low polyreactivity
5. QVQLVESGGGLVQAGGSLRLSCAASGRTFFKYVMGWSRQAPGKERELVAAITWNGGRTNYADSVKGRFTISRDYAKNTVYLQMNSLKPEDTAVYYCAAVTSVNPSVFNGNYWGQGTQVTVSS low polyreactivity
